assay: in vivo; conditions: female, C57BL/6, mouse, po, 50 mg/kg, AUClast, C57Bl/6 mice, oral 50 mg/kg QD-4 days, plasma
quantity-name: AUC(0-t)

>>> value_observed("CCS(=O)(=O)N1N=Cc2ccc(Oc3ccc(C(F)(F)F)cc3/C=N/O)cc2B1O [AN12855]")
"82400 ng·h/mL"

###

test: in vivo; details: female, C57BL/6, mouse, po, 10 mg/kg, Tmax, C57Bl/6 mice, oral 10 mg/kg QD-4 days, lung
quantity-name: Tmax (h)

>>> value_observed("CCS(=O)(=O)N1N=Cc2ccc(Oc3ccc(C(F)(F)F)cc3/C=N/O)cc2B1O [AN12855]")
5

###

test: in vivo; conditions: female, BALB/c, mouse, po, 10 mg/kg, Tmax, BALB/c (infected) mice, oral 10 mg/kg QD-3 wk, plasma
quantity-name: Tmax

>>> value_observed("CCS(=O)(=O)N1N=Cc2ccc(Oc3ccc(C(F)(F)F)cc3/C=N/O)cc2B1O [AN12855]")
"30 min"

###

experiment: in vitro; details: human
quantity-name: IC50

>>> value_observed("CS(=O)(=O)N1N=Cc2ccc(Oc3ccc(C(F)(F)F)cc3/C=N/O)cc2B1O")
"> 50 µM"
>>> value_observed("CCS(=O)(=O)N1N=Cc2ccc(Oc3ccc(C(F)(F)F)cc3/C=N/O)cc2B1O")
"> 50 µM"

###

experiment: in vivo; conditions: female, CD-1, mouse, iv, 5 mg/kg, AUClast, CD-1 mice, IV 5 mg/kg, single dose, plasma
quantity-name: AUC(0-t) (ng·h/mL)

>>> value_observed("CCS(=O)(=O)N1N=Cc2ccc(Oc3ccc(C(F)(F)F)cc3/C=N/O)cc2B1O [AN12855]")
14300

###

test: in vivo; settings: female, C57BL/6, mouse, po, 25 mg/kg, Cmax, C57Bl/6 mice, oral 25 mg/kg QD-4 days, plasma
quantity-name: Cmax (µg/mL)

>>> value_observed("CCS(=O)(=O)N1N=Cc2ccc(Oc3ccc(C(F)(F)F)cc3/C=N/O)cc2B1O")
12.6

###

assay: in vivo; settings: female, CD-1, mouse, iv, 5 mg/kg
quantity-name: Vd (L/kg)

>>> value_observed("CCS(=O)(=O)N1N=Cc2ccc(Oc3ccc(C(F)(F)F)cc3/C=N/O)cc2B1O")
1.27

###

test: in vivo; conditions: female, CD-1, mouse, iv, 5 mg/kg
quantity-name: clearance (mL/min/kg)

>>> value_observed("CCS(=O)(=O)N1N=Cc2ccc(Oc3ccc(C(F)(F)F)cc3/C=N/O)cc2B1O [AN12855]")
5.8

###

target: M. tuberculosis InhA (Mycobacterium tuberculosis, UniProt P9WGR1); assay: biochemical; format: binding; settings: cofactor: NAD^+
Sequence (P9WGR1 whole entry, looked up): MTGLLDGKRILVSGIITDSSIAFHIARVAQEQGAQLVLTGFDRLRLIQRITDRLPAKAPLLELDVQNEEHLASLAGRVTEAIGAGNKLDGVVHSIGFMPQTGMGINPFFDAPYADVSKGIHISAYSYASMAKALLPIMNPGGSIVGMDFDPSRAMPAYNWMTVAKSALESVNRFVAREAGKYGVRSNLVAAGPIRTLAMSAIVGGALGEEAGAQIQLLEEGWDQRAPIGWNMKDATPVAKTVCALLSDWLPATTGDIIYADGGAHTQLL
pKd: −log10 of the molar value.
quantity-name: pKd

>>> value_observed("CCS(=O)(=O)N1N=Cc2cc(Oc3ccc(C(F)(F)F)cc3/C=N/O)ccc2B1O")
6.07

###

assay: in vivo; details: female, BALB/c, mouse, po, 10 mg/kg
quantity-name: half-life

>>> value_observed("CCS(=O)(=O)N1N=Cc2ccc(Oc3ccc(C(F)(F)F)cc3/C=N/O)cc2B1O")
"3.04 h"

###

assay: in vivo; settings: female, C57BL/6, mouse, po, 10 mg/kg, Tmax, C57Bl/6 mice, oral 10 mg/kg QD-4 days, plasma
quantity-name: Tmax (min)

>>> value_observed("CCS(=O)(=O)N1N=Cc2ccc(Oc3ccc(C(F)(F)F)cc3/C=N/O)cc2B1O [AN12855]")
30
